test system: IGROV1 ovarian; assay: NCI-60 one-dose screen, 48 h (100 = growth as untreated, 0 = no growth, -100 = all killed); settings: 10 µM unless noted
The panel holds about 83,000 compounds, 20% with a hit somewhere; the sample as a whole holds those more often.
recorded.endpoint: growth (%)
Answers are plain numbers, in %.

compound	measured.on	value.observed
O=C1C(=O)c2ccccc2C(O)=C1CCCc1ccc(Oc2ccccc2)cc1	IGROV1 ovarian	34.7
CCCCCCCCCCCCCCCCCC1=NCCN1CCNC(C)=O	IGROV1 ovarian	91.1
COc1cc(OC)c(NC(=O)n2ncc3cc(Nc4ncnc5ccccc45)ccc32)cc1Cl	IGROV1 ovarian	56.4

For every item below, please supply its growth.
1. CCCCCCCCCCN1CC2CCCCC2C1 (stereo unspecified)
2. O=C(/C=C/c1c[nH]c2ccccc12)c1cc2ccccc2o1

1: 90; 2: 88.2

For every item below, please supply its growth.
1. CCOC(=O)C1=C(C(F)(F)F)NC(=S)NC1CN1C(=O)c2ccccc2C1=O (stereo unspecified)
2. CCCCCCCCCCCCCCCCNC(=O)Nc1ccc(C)c(NC(=O)NCCCCCCCCCCCCCCCC)c1
3. Clc1ccc(I)c2ccccc12
4. Oc1ccccc1/C=N/N=C/c1c(O)ccc2ccccc12
5. CNc1ccc(Nc2ccc(S(=O)(=O)O)cc2)c2c1C(=O)c1ccccc1C2=O
6. O=c1[nH]c2cc(O)ccc2n2cc3c(F)cccc3c12

1: 104; 2: 107; 3: 107; 4: 47.9; 5: 105; 6: 16.9

====

Exercise: state measured growth for each of the compounds provided.
test system: SN12C renal; test: NCI-60 one-dose screen, 48 h (100 = growth as untreated, 0 = no growth, -100 = all killed); details: 10 µM unless noted
About 83,000 compounds went through this panel and 20% of them were active in at least one assay; those are over-represented in the sample as a whole. Active and inactive are the calls of the source. How the source made its calls: active means growth percent below 10; inactive means the rest.

Worked examples, 6 compounds total:
compound	value.observed
COc1ccc2c(c1)/C(=C/c1c(-c3cc(OC)c(OC)c(OC)c3)nc3sccn13)C(=O)N2	105% (inactive)
CCS(=O)(=O)N[C@@H]1O[C@H](COC(C)=O)C(OC(C)=O)[C@H](OC(C)=O)C1OC(C)=O (some centres not stated)	112% (inactive)
Cn1c2ccccc2c2ccccc21	107% (inactive)
CCCCCCCCCCC1OC(C)CC(C)O1 (configuration not stated)	103% (inactive)
COc1cccc2c1n([O-])c1cccc(OC)c1[n+]2=O	83.3% (inactive)
Cc1cc2cn3c4ccc(O)cc4nc(N)c3c2cc1C	44.6% (inactive)

For every item below, please supply its growth.
1. COc1ccc(-n2nnnc2-c2cn[nH]c2C(F)(F)F)cc1
2. CC(C)(C)C(=O)OCOP(=O)(OCOC(=O)C(C)(C)C)C1CC(O)N(O)C1=O (configuration not stated)
3. CC(=O)Nc1nc(C)c(C(=O)NNS(=O)(=O)c2ccccc2)s1
4. CC(=O)N(N=O)c1ccc([N+](=O)[O-])cc1Cl

104% (inactive)
11.6% (inactive)
105% (inactive)
47.4% (inactive)

For every item below, please supply its growth.
1. CC(C)OC(=O)Nn1cnc2ccccc21
2. CCc1ccc(C(=Nc2ccc(N(C)C(=O)CN3CCN(C)CC3)cc2)c2c(O)[nH]c3ccc(C(=O)OC)cc23)cc1

113% (inactive)
-57.4% (active)
